// data source = patent US20220195015A1

TESTED_SYSTEM: SARS-CoV-2 spike receptor binding domain (RBD), wild type (SARS-CoV-2, UniProt P0DTC2 319-539)
ASSAY_OVERVIEW: ELISA on coated RBD protein
Below, each entry is listed with its recorded EC50.
Report the figure in µg/mL without appending any unit label.

{"BINDER": "C095 (antibody, V domains shown) VH: VQLVEAGGGVVQPGRSLRLSCAASGLAFSIYGMHWVRQAPGKGLEWVAIVAQDGSKKYYADSVKGRFTISRDNSKNTLYLEMNSLRTEDTAVYYCVKEGRPSDTVVVVAFDYWGQGSLVTVSS VL: DIQLTQSPSSLSASVGDRVTITCRASQSISNYLNWYQQKPGKAPKVIIYAASSLQSGVPSRFSGSGSGTDFTLTISSLQPEDFATYYCQQSHSIPRTFGQGTKVEIK", "ENDPOINT": "EC50", "NUMERIC_READOUT": 0.0011}
{"BINDER": "C706 (antibody, V domains shown) VH: EVQLVESGGGLVKPGGSLRLSCAASGFTFSNVWMSWVRQAPGKGLEWVGRIKSKIDGGTTEYAAPVKGRFIISRDDSKNTLSLQMNSLKTEDTAVYYCTTDHGREPPVHWGQGTLVTVSS VL: EIVLTQSPGTLSLSPGERASLSCRARQSVYSNYLAWYQHKSGQAPRLLFYGASSRATDIPDRFSASGSGTDFTLTISRLEPEDFAVYYCLQYGPSPTFGPGTRLEIK", "ENDPOINT": "EC50", "NUMERIC_READOUT": 0.0735}
{"BINDER": "C707 (antibody, V domains shown) VH: EVQLVESGGGLVKPGGSLRLSCAASGFTFSSYSMNWVRQAPGKGLAWVSSISSSNNIIYYADSVKGRFTISRDDAKDSLYLHMKSLRADDTAVYFCARVPSWAPYQLLPGPFDYWGQGILVTVSS VL: IRMTQSPSSLSASVGDRVTITCQASQAIASYLSWYQHKPGRAPKLLIYDASNLEIGVPSRFSGSGSGTDFTFTISSLQSEDNATYYCQQYESLPGTFGGGTKVEIK", "ENDPOINT": "EC50", "NUMERIC_READOUT": 0.026}

API: the following record is the query input.
# input What value of EC50 has been recorded for this entry: C049 (antibody, V domains shown) VH: QVQLQESGPGLVKPSETLSLTCTVSGGSVSSGTFYWSWIRQPPGKGLEWIGYIHYSGSTNYNPSLKSRVTISVDTSKNQFSLRLSSVTAADTAVYYCARESFYYDRSGYYGSDAFDIWGQGTMVTVSS VL: DIQMTQSPSTLSSSVGDRVTITCRASQNISRWLAWYQQKPGKAPKLLIYKASTLESGVPSRFSGSGSGTKFTLTISSLQPDDFATYYCQQYNSYLYTFGQGTKLEIK
# output 0.00409
